Protocol description: Stability in Sprague-Dawley rat plasma assessed as half life measured upto 24 hrs by UPLC-MS analysis
Type: ADME, cell-free
Assay readout: half-life (min)
Number in min, nothing else.

Please give the measured half-life for this compound: C=CC[C@H](NC(=O)[C@H](CO)NC(=O)[C@H](CC(C)C)NC(=O)[C@H](CCCNC(=N)N)NC(=O)[C@@H](N)CC=C)C(=O)N[C@@H](CCCCN)C(=O)NCC(=O)N1CCC[C@H]1C(=O)N[C@@H](CCCC)C(=O)N1CCC[C@H]1C(=O)N[C@@H](Cc1ccccc1)C(=O)O
6

---

Target: UniProt P35414
Sequence (P35414 whole entry): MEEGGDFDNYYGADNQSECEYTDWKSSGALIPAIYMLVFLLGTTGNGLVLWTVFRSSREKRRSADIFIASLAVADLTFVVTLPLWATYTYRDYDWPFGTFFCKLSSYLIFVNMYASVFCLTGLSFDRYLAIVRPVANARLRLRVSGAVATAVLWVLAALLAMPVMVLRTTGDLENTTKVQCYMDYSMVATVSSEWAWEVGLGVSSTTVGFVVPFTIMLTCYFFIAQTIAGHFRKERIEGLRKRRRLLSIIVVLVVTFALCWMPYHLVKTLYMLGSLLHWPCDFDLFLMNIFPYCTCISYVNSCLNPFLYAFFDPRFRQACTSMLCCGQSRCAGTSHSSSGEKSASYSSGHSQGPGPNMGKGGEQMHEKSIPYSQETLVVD
pKi: −log10 of the molar value. Bridge positions count the residues as written; N and C are the ends. Square brackets hold non-standard residues; d marks the D form. Peptide text beside a SMILES is read from it. AllylGly = C=CC[C@H](N)C(=O)O; Nle = CCCC[C@H](N)C(=O)O; Ava = NCCCCC(=O)O
The molecules listed here are annotated with their pKi.

Please give the measured pKi for this molecule: CC(C)C[C@@H]1NC(=O)[C@H](CCCNC(=N)N)NC(=O)[C@@H](N)C/C=C\C[C@@H](C(=O)N[C@@H](CCCCN)C(=O)O)NC(=O)[C@H](CO)NC1=O (H-[AllylGly]RLS[AllylGly]K-OH; staple (Z) 1-5)
< 5.00

Proceed to CCCC[C@H](NC(=O)[C@@H]1CCCN1C(=O)CNC(=O)[C@@H]1C/C=C\C[C@H](N)C(=O)N[C@@H](CCCNC(=N)N)C(=O)N[C@@H](CC(C)C)C(=O)N[C@@H](CO)C(=O)N1)C(=O)O (H-[AllylGly]RLS[AllylGly]GP[Nle]-OH; staple (Z) 1-5)
< 5.00

Proceed to CCCC[C@H](NC(=O)[C@@H]1CCCN1C(=O)CNC(=O)[C@H](CCCCN)NC(=O)[C@@H]1CC(=O)NCCCC[C@H](NC(=O)[C@H](CCCNC(=N)N)NC(=O)[C@@H]2CCC(=O)N2)C(=O)N[C@@H](CCCNC(=N)N)C(=O)N[C@@H](CC(C)C)C(=O)N[C@@H](CO)C(=O)N1)C(=O)N1CCC[C@H]1C(=O)N[C@@H](Cc1ccccc1)C(=O)O (HELM PEPTIDE1{[Glp].R.K.R.L.S.D.K.G.P.[Nle].P.F}$PEPTIDE1,PEPTIDE1,3:R3-7:R3$$$V2.0)
7.41

Proceed to CC(C)C[C@@H]1NC(=O)[C@H](CCCNC(=N)N)NC(=O)[C@@H](N)C/C=C\C[C@@H](C(=O)N[C@@H](CCCCN)C(=O)NCC(=O)N2CCC[C@H]2C(=O)N[C@@H](C)C(=O)O)NC(=O)[C@H](CO)NC1=O (H-[AllylGly]RLS[AllylGly]KGPA-OH; staple (Z) 1-5)
< 5.00

Proceed to CCCC[C@H](NC(=O)[C@@H]1CCCN1C(=O)CCCCNC(=O)[C@@H]1C/C=C\C[C@H](N)C(=O)N[C@@H](CCCNC(=N)N)C(=O)N[C@@H](CC(C)C)C(=O)N[C@@H](CO)C(=O)N1)C(=O)O (H-[AllylGly]RLS[AllylGly][Ava]P[Nle]-OH; staple (Z) 1-5)
< 5.00

---

Test system: Rattus norvegicus
Protocol description: Hypotensive effect in Sprague-Dawley rat assessed as decrease in blood pressure at 19.6 to 65 nmol/kg, iv relative to control
Type: functional
Condition context: dose 19.6-65 nmol/kg
Assay readout: Activity (mmHg)
Number in mmHg, nothing else.

Example compounds with recorded Activity:
Smiles repr | Assay readout | Measured
CCCC[C@H](NC(=O)[C@@H]1CCCN1C(=O)CNC(=O)[C@H](CCCCN)NC(=O)[C@@H]1C/C=C\C[C@H](N)C(=O)N[C@@H](CCCNC(=N)N)C(=O)N[C@@H](CC(C)C)C(=O)N[C@@H](CO)C(=O)N1)C(=O)N1CCC[C@H]1C(=O)N[C@@H](Cc1ccccc1)C(=O)O | Activity | -27
CCCC[C@H](NC(=O)[C@@H]1CCCN1C(=O)CNC(=O)[C@H](CCCCN)NC(=O)[C@@H]1Cc2cncn2C/C=C/C[C@H](NC(=O)[C@H](CCCNC(=N)N)NC(=O)[C@@H]2CCC(=O)N2)C(=O)N[C@@H](CCCNC(=N)N)C(=O)N[C@@H](CC(C)C)C(=O)N[C@@H](CO)C(=O)N1)C(=O)N1CCC[C@H]1C(=O)N[C@@H](Cc1ccccc1)C(=O)O | Activity | -36

Test system Rattus norvegicus; read-out Activity; what value for CCCC[C@H](NC(=O)[C@@H]1CCCN1C(=O)CNC(=O)[C@H](CCCCN)NC(=O)[C@@H]1C/C=C\C[C@H](N)C(=O)N[C@@H](CCCNC(=N)N)C(=O)N[C@@H](CC(C)C)C(=O)N[C@@H](CO)C(=O)N1)C(=O)O ?
-13

---

The molecules listed here are annotated with their Emax.
Target: Apelin receptor (Homo sapiens) (UniProt P35414)
Protocol description: Agonist activity at human APJ expressed in HEK293 cell membrane assessed as maximal efficacy for recruitment of PDZ-RhoGEF Galphai1 to cell membrane by BRET-based G protein dissociation assay relative to control
Type: functional
Condition context: filed as agonist
Number in %, nothing else.

Please give the measured Emax for this molecule: CCCC[C@H](NC(=O)[C@@H]1CCCN1C(=O)CNC(=O)[C@H](CCCCN)NC(=O)[C@@H]1CCCC[C@H](NC(=O)[C@H](CCCNC(=N)N)NC(=O)[C@@H]2CCC(=O)N2)C(=O)N[C@@H](CCCNC(=N)N)C(=O)N[C@@H](CC(C)C)C(=O)N[C@@H](CO)C(=O)N1)C(=O)N1CCC[C@H]1C(=O)N[C@@H](Cc1ccccc1)C(=O)O
100

Proceed to CCCC[C@H](NC(=O)[C@@H]1CCCN1C(=O)CNC(=O)[C@H](CCCCN)NC(=O)[C@@H]1C/C=C\C[C@H](N)C(=O)N[C@@H](CCCNC(=N)N)C(=O)N[C@@H](CC(C)C)C(=O)N[C@@H](CO)C(=O)N1)C(=O)N1CCC[C@H]1C(=O)N[C@@H](Cc1ccccc1)C(=O)O
98

Proceed to CCCC[C@H](NC(=O)[C@@H]1CCCN1C(=O)CNC(=O)[C@H](CCCCN)NC(=O)[C@@H]1C/C=C\C[C@H](NC(=O)[C@H](CCCNC(=N)N)NC(=O)[C@@H]2CCC(=O)N2)C(=O)N[C@@H](CCCNC(=N)N)C(=O)N[C@@H](CC(C)C)C(=O)N[C@@H](CO)C(=O)N1)C(=O)N1CCC[C@H]1C(=O)N[C@@H](Cc1ccccc1)C(=O)O
98

---

Target: Apelin receptor (Homo sapiens) (UniProt P35414)
Sequence (whole entry): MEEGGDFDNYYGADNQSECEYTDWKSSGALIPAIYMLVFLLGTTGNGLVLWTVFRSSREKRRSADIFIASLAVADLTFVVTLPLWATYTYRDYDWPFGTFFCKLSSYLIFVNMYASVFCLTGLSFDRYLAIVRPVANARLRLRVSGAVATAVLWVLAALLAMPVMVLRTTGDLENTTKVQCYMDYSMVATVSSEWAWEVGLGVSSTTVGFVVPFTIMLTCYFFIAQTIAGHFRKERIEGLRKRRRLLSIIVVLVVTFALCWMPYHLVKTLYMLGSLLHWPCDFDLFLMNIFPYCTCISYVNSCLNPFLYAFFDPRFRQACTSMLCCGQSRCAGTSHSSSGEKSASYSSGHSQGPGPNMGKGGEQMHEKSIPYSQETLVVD
Protocol description: Agonist activity at human APJ expressed in HEK293 cell membrane assessed as maximal efficacy for recruitment of PDZ-RhoGEF Galphai1 to cell membrane by BRET-based G protein dissociation assay relative to control
Assay type: functional
Condition context: filed as agonist
Assay readout: Emax (%)

Smiles repr | Measured
CCCC[C@H](NC(=O)[C@@H]1CCCN1C(=O)CNC(=O)[C@H](CCCCN)NC(=O)[C@@H]1Cc2cncn2C/C=C/C[C@H](NC(=O)[C@H](CCCNC(=N)N)NC(=O)[C@@H]2CCC(=O)N2)C(=O)N[C@@H](CCCNC(=N)N)C(=O)N[C@@H](CC(C)C)C(=O)N[C@@H](CO)C(=O)N1)C(=O)N1CCC[C@H]1C(=O)N[C@@H](Cc1ccccc1)C(=O)O | 98

I: CC(C)C[C@@H]1NC(=O)[C@H](CCCNC(=N)N)NC(=O)[C@@H](N)C/C=C\C[C@@H](C(=O)N[C@@H](CCCCN)C(=O)NCC(=O)N2CCC[C@H]2C(=O)N[C@H](Cc2ccc(OCc3ccccc3)cc2)C(=O)O)NC(=O)[C@H](CO)NC1=O
II: CCCC[C@H](NC(=O)[C@@H]1CCCN1C(=O)CNC(=O)[C@H](CCCCN)NC(=O)[C@@H]1C/C=C\C[C@H](NC(=N)N)C(=O)N[C@@H](CCCNC(=N)N)C(=O)N[C@@H](CC(C)C)C(=O)N[C@@H](CO)C(=O)N1)C(=O)N1CCC[C@H]1C(=O)N[C@@H](Cc1ccccc1)C(=O)O
Kindly identify which of I and II has the larger recorded Emax value. Returns: label corresponding to the selected item.
II
